Data origin, for the record: ChEMBL document CHEMBL5365534

assay name: Elimination half life in Sprague-Dawley rat at 10 mg/kg, po administered as single dose measured upto 24 hrs by LC-MS/MS analysis
Assay type: ADME, organism-based
stated conditions: in vivo, read-out: beta t1/2 (converted)
assay readout: half-life (h)
Please respond with the number in h and leave the unit unwritten.

Qu. Could you share which half-life value was measured for C[C@H]1CCN1c1nc(N2CC[C@H](CCC(=O)O)C2)c2c(n1)C(F)(F)CC2 ?
Ans. 7.16

----------
assay name: Oral bioavailability in Sprague-Dawley rat at 10 mg/kg administered as single dose measured upto 24 hrs by LC-MS/MS analysis
Assay type: ADME, organism-based
stated conditions: in vivo
assay readout: bioavailability (%)
Please respond with the number in % and leave the unit unwritten.

Qu. Could you share which bioavailability value was measured for C[C@H]1CCN1c1nc(N2CC[C@H](CCC(=O)O)C2)c2c(n1)C(F)(F)CC2 ?
Ans. 54.6
